meta.source: the Immune Epitope Database (IEDB)

biological target: HLA-A*02:12; assay: IEDB peptide-MHC binding, purified MHC/direct/fluorescence; filed as Kd, often an IC50 or EC50 that approximates it; bounds were set here for any values at or beyond the usual limits of such assays; details: source organism: Dengue virus 2 Thailand/16681/84
reported-metric: Kd (nM)

[[record]]
primary_sequence = "KMDIGVPLL"
reported_value = 4


---

target: HLA-B*51:01; assay: IEDB peptide-MHC binding, purified MHC/direct/fluorescence; filed as Kd, often an IC50 or EC50 that approximates it; bounds were set here for any values at or beyond the usual limits of such assays; settings: source organism: Vibrio cholerae V52
pKd: −log10 of the molar value.
reported-metric: pKd

[[record]]
primary_sequence = "EVNAHIHTM"
reported_value = "≤ 4.70"

